System: U2OS
Experiment: Multiplex assay against U2OS
Type: toxicity, cell-based
Settings: human, 12 h, 10 µM, compound concentration 10 uM, replicate 2
MEASURED ATTRIBUTE: Population Fragmented Nuclei (%)
Just the number in %, nothing appended.

Give recorded Population Fragmented Nuclei (%) with U2OS for the following compound: Cc1cn(-c2cc(NC(=O)c3ccc(C)c(Nc4nccc(-c5cccnc5)n4)c3)cc(C(F)(F)F)c2)cn1
18

And then O=C(Cc1ccc(-c2ccc(OCCN3CCOCC3)cc2)cn1)NCc1ccccc1 , what is it?
13

Also need O=C(Nc1ccc(-n2nc(-c3cccnc3)cc2C(F)(F)F)cn1)c1ccc(-c2ccccc2)c(F)c1 , thanks.
18

Record: O=C(Nc1ccc(-c2ccnc(Nc3ccc(N4CCOCC4)cc3)n2)cc1)[C@@H]1CCCN1
7

Now the same for COc1cc(N2CCN(C)CC2)ccc1Nc1ncc2c(n1)N(C)c1ccccc1C(=O)N2C
15

Similarly, C=C1/C(=C\C=C2/CCC[C@]3(C)[C@@H]([C@H](C)/C=C/[C@H](C)C(C)C)CC[C@@H]23)C[C@@H](O)C[C@@H]1O ?
27

Let us now turn to CCCS(=O)(=O)Nc1ccc(F)c(C(=O)c2c[nH]c3ncc(Cl)cc23)c1F
6

Record: O=C1NC(=O)C(c2cnc3ccccn23)=C1c1cn2c3c(cc(F)cc13)CN(C(=O)N1CCCCC1)CC2
9
